In this section, each of the compounds is paired with its reported IC50.
# Tested On: ACSS2 (Homo sapiens, UniProt Q9NR19)
# Sequence (Q9NR19 whole entry): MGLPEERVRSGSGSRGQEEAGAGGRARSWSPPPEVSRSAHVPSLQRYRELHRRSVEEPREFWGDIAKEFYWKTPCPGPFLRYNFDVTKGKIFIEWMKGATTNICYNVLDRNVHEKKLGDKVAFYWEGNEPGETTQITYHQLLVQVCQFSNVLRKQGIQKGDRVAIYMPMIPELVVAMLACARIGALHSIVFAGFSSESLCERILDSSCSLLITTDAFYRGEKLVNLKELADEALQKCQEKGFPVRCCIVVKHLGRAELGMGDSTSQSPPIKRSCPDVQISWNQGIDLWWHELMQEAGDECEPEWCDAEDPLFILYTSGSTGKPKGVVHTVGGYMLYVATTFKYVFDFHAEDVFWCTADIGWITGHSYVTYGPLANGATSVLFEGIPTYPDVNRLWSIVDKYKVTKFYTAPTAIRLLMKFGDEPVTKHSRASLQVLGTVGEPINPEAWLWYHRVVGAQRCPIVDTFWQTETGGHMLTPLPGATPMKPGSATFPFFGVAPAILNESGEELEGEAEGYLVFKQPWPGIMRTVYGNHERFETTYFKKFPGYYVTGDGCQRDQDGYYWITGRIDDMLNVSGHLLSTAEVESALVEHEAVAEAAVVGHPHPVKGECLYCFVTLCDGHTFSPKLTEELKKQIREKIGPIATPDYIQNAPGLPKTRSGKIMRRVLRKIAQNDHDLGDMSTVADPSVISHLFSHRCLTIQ
# Assay Overview: biochemical;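 note: Cell-free human ACSS2 enzyme reaction with acetate, CoA and ATP, 90 min at 37 C, coupled to pyrophosphatase, phosphate release detected by Biomol Green absorbance at 620 nm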

Sample answers from the record:
CC1=NN(c2cccc(C#CCN)c2)C(=O)C1C(=O)Nc1cccc(C(C)(F)F)c1 (centres unmarked) [compound 356]; 6 to 100 nM
COc1ccc(N2N=C(C)C(C(=O)Nc3cccc(C(C)(F)F)c3)C2=O)cc1-c1cc[n+]([O-])cc1 (centres unmarked) [compound 345]; 100 to 1000 nM
COc1cccc(N2N=C(C)C(C(=O)Nc3cccc(-c4ccco4)c3)C2=O)c1 (centres unmarked) [compound 247]; 0.01 to 6 nM
CC1=NN(c2ccccc2)C(=O)C1C(=O)Nc1cccc(Br)c1 (centres unmarked) [compound 215]; 6 to 100 nM
CC1=NN(c2ccccc2)C(=O)C1C(=O)Nc1ccc2c(c1)CCC2 (centres unmarked) [compound 209]; 100 to 1000 nM

Give the value of IC50 reported for the following: CC1=NN(c2ccccc2)C(=O)C1C(=O)Nc1cccc(O)c1 (centres unmarked) [compound 222]
1000 to 100000 nM

Give the value of IC50 reported for the following: CC1=NN(c2ccc(OC(F)F)cc2)C(=O)C1C(=O)Nc1cccc(C(F)(F)C(C)C)c1 (centres unmarked) [compound 362]
6 to 100 nM

Give the value of IC50 reported for the following: CC1=NN(c2ccc(OC(F)F)cc2)C(=O)C1C(=O)Nc1ccc2cc[nH]c2c1 (centres unmarked) [compound 349]
100 to 1000 nM
